- assay_target: GABARAP, O95166
- Sequence (O95166 whole entry, the tested form may be a part): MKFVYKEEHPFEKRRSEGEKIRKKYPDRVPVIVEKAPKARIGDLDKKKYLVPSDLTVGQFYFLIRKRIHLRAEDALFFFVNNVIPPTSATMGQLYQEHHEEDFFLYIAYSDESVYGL
- test_details: median log2 fold change of GCK-ALFA target abundance (FLAG IP / Myc IP barcode read proportion) (log2 ratio); each designed protein is fused to an ALFA-tag nanobody in HEK293 cells to bring the named protein to FLAG-tagged glucokinase (GCK); Myc marks an untargeted standard; higher = target protein stabilised (more abundant)
- run_conditions: target protein: 3xFLAG-MCP-GCK-ALFA reporter; HEK293 landing pad (RPLP)
Whole data set: some 4,500 sequences, median “median log2 fold change of GCK-ALFA target abundance (FLAG IP / Myc IP barcode read proportion)” near 0.078, cut for the lowest 2% near -0.6. Only a selection was taken, and the lowest values are over-represented in it overall.
Record form. Attribute: median log2 fold change. Fill in for each entry.
Give bare numbers.

INSERT INTO results (binder, recorded_number) VALUES
  ('GBRAP_128_3472 (protein) GVEEVRKWTKEVMEKMKTADDEEFRELATELAERLLTLPLEEVEAAVEVIKEHLPELTAEKLEILAEVLREARPQATPEKAALFADVESEALLLAEELEE', 0.00124),
  ('GBRAP_125_3054 (protein) NLEEAIEALAELGKILGLSEEEVEELRKLAEKYGVKGTLYALLLAEGEEELAELVAKLTEEEVIEVLKRLLEYIKSHPNITKEEALEKLKELAEEALAKK', -1.42),
  ('GBRAP_45_5811 (protein) SEELKETREKLEELLKKAKELAEKLKEEDPEKFTPLLELLEEAEKLLKEEPESLEAWERIEELLEEALKLALDSKKASAELLETLLEAANLALEAKELLE', 0.129),
  ('GBRAP_52_5860 (protein) MVEEALEKLRKAVEAMKAGKEEEAEKILKEIVENFDEETILAAAEAFAKEMATATPEEAEAAFRTAEMLGKILEEAGFDEEVVTLIEDTIGAAVARVEAA', 0.165),
  ('GBRAP_11_2896 (protein) KKEKLKEAAELAEKAAKLLEELIKEGPDNEELRKKAEEALEKLLELAKKYLDESSVELAESALELFEKAKEDPENAKEYLEQALAYVRVLEGQVLLEIEE', 0.203);

Give measured median log2 fold change for every item shown.
1. GBRAP_11_2857 (protein) KKEKLKEAAELARKAAEALEKLLKEGVDDKELQKKIEELLKKLLELVKEYGDPDLIKLAEIALENFQKAKKDPKNAEKYIKEALAAVRVLEGNLLLEIDE
2. GBRAP_11_2748 (protein) KKEKLKEIAKAAEELAALLDKLIAEGVDNAELQAAAEKALKELAELVEKYGDESLKKLVAIIQEEFAQAKADPATAEAHWRNALAAARVLAGQVLLEIEE

Reply:
1. 0.0648
2. 0.194

Entry source: the supplement of paper PMC12632987
